All values here come from the supplement of paper PMC10567573.

B1: TRIB1 (parent)
chain: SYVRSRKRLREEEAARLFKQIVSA

Variants of: B1
experimentalDetails: protein stability index of a GFP-peptide fusion (GPS, HEK-293T) (PSI 1-6); higher = more stable;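 also: lentivirally expressed fusions sorted by FACS into six bins by GFP to DsRed ratio, PSI derived from sequencing read proportions per bin multiplied by bin number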
studyConditions: c terminus: a fixed tail appended
quantityMeasured: protein stability index
No unit in the answer, please; the number alone is enough.

stdin: Entry `V22R` has what protein stability index?
stdout: 3.3

stdin: Entry `A24T` has what protein stability index?
stdout: 2.47

stdin: Entry `F18Q` has what protein stability index?
stdout: 4.07

stdin: Entry `E11W` has what protein stability index?
stdout: 2.05

stdin: Entry `A24Y` has what protein stability index?
stdout: 2.32

stdin: Entry `S23F` has what protein stability index?
stdout: 2.07

stdin: Entry `Y2F` has what protein stability index?
stdout: 1.54

stdin: Entry `L17G` has what protein stability index?
stdout: 3.72

stdin: Entry `A15G` has what protein stability index?
stdout: 2.56

stdin: Entry `I21L` has what protein stability index?
stdout: 1.39

stdin: Entry `V22H` has what protein stability index?
stdout: 2.23

stdin: Entry `F18A` has what protein stability index?
stdout: 3.44

stdin: Entry `V22Q` has what protein stability index?
stdout: 3.34

stdin: Entry `E11N` has what protein stability index?
stdout: 2.13

stdin: Entry `A24V` has what protein stability index?
stdout: 2.61

stdin: Entry `A15M` has what protein stability index?
stdout: 2.68

stdin: Entry `E12K` has what protein stability index?
stdout: 2.27

stdin: Entry `R10E` has what protein stability index?
stdout: 2.27

stdin: Entry `K7Q` has what protein stability index?
stdout: 2.02

stdin: Entry `S5G` has what protein stability index?
stdout: 3.13

stdin: Entry `R6A` has what protein stability index?
stdout: 1.89
